# D(3) dopamine receptor (Homo sapiens, UniProt P35462): Ki values follow
# Sequence (P35462 whole entry): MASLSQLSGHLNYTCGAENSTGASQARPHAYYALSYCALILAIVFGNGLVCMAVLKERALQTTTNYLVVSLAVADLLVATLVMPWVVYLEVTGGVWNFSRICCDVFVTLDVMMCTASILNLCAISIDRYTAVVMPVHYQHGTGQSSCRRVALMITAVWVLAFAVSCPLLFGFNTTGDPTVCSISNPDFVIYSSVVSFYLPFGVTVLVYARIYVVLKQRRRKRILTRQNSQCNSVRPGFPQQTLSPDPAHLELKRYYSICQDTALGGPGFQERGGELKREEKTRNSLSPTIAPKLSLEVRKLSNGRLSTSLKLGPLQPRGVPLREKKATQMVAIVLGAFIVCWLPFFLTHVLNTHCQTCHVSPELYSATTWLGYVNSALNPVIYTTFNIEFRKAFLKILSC
Measurement type: Ki (nM)

| Structure as smiles | Ki (nM) |
| --- | --- |
| CCCN(CCCCNC(=O)c1ccc(OCCCc2cn(CCCCCCCCn3cc(CCCOc4ccc(C(=O)NCCCCN(CCC)C5Cc6ccccc6C5)cc4OC)nn3)nn2)c(OC)c1)C1Cc2ccccc2C1 | 1.8 |
| CCCN(CCCCNC(=O)c1ccc(OCCCc2cn(CCCCCCCCn3cc(CCCOc4ccc(C(=O)NCCCCN5CCN(c6ccccc6OC)CC5)cc4OC)nn3)nn2)c(OC)c1)C1Cc2ccccc2C1 | 2 |
| CCCCn1cc(CCCOc2ccc(C(=O)NCCCCN3CCN(c4ccccc4OC)CC3)cc2OC)nn1 | 2 |
